Hi there, I'd appreciate the recorded kon for every entry that follows.
Molecular target: T1, human RANKL protein (Sino Biological, 11682-HNCH) (human, UniProt O14788 136-317, limits assumed)
T1 construct: Bought protein
T1 sequence (looked up): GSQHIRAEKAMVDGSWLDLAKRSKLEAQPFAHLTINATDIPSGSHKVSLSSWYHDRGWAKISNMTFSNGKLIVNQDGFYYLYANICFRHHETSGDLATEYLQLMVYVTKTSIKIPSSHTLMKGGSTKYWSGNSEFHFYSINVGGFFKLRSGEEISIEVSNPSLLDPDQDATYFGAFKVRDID
Assay: SPR (Biacore), antibody captured on Protein A chip, RANKL in flow, 1:1 fit
Give your result in M⁻¹ s⁻¹ as a bare value.

Problem: For 5-16H (antibody, V domains shown, Variable regions fused to human constant regions) VH: EVQLLESGGGLVQPGGSLRLSCAASGFTFSSYAMSWVRQAPGKGLEWVSGITGSGGSTYYADSVKGRFTISRDNSKNTLYLQMNSLRAEDTAVYYCAKDPASIVIMSWFDPWGQGTLVTVSS VL: EIVLTQSPGTLSLSPGERATLSCRASQSVRGRYLAWYQQKPGQAPRLLIYGASSRATGIPDRFSGSGSGTDFTLTISRLEPEDFAVFYCQQYGSSPRTFGQGTKVEIK , write its kon.
Result: 29200

Problem: For 1-22H (antibody, V domains shown, Variable regions were fused to human heavy and light chain constant regions to form complete chains) VH: EVQLLESGGGLVQPGGSLRLSCAASGFTFADYAMSWVRQAPGKGLEWVSGISASGSSTYYADSVKGRFTISRDNSKNTLYLQMNSLRAEDTAVYYCAKDPGTTVIMSWFDPWGQGTLVTVSS VL: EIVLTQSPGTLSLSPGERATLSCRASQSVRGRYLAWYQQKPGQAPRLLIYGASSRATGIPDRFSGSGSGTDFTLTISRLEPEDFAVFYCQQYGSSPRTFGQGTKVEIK , write its kon.
Result: 25800

Problem: For 2-72L (antibody, V domains shown, Variable regions fused to human constant regions) VH: EVQLLESGGGLVQPGGSLRLSCAASGFTFSSYAMSWVRQAPGKGLEWVSGITGSGGSTYYADSVKGRFTISRDNSKNTLYLQMNSLRAEDTAVYYCAKDPGTTVIMSWFDPWGQGTLVTVSS VL: EIVLTQSPGTLSLSPGERATLSCRASQSLGARGLAWYQQKPGQAPRLLIYGTSSRATGIPDRFSGSGSGTDFTLTISRLEPEDFAVFYCQQYGSSPRTFGQGTKVEIK , write its kon.
Result: 16200

Problem: For 3-20L (antibody, IgG4, V domains shown, Variable regions fused to human constant regions) VH: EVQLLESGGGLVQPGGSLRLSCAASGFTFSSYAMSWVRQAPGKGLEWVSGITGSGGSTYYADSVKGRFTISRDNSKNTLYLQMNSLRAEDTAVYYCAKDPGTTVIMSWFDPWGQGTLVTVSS VL: EIVLTQSPGTLSLSPGERATLSCRASQAIRGPNLAWYQQKPGQAPRLLIYDTSSRATGIPDRFSGSGSGTDFTLTISRLEPEDFAVFYCQQYGSSPRTFGQGTKVEIK , write its kon.
Result: 20100

Problem: For 2-76L (antibody, IgG4, V domains shown, Variable regions fused to human constant regions) VH: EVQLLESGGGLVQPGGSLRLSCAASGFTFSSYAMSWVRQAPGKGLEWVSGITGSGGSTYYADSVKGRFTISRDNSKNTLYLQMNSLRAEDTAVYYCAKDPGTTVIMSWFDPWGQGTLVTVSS VL: EIVLTQSPGTLSLSPGERATLSCRASQAIPYNQLAWYQQKPGQAPRLLIYGVSSRATGIPDRFSGSGSGTDFTLTISRLEPEDFAVFYCQQYGSSPRTFGQGTKVEIK , write its kon.
Result: 16800

Problem: For 5-53H (antibody, V domains shown, Variable regions fused to human constant regions) VH: EVQLLESGGGLVQPGGSLRLSCAASGFTFSSYAMSWVRQAPGKGLEWVSGITGSGGSTYYADSVKGRFTISRDNSKNTLYLQMNSLRAEDTAVYYCAQDPCFTYIMSWFDPWGQGTLVTVSS VL: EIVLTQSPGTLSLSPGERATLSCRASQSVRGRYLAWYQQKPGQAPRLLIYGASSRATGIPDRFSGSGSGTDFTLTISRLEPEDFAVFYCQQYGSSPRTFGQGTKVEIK , write its kon.
Result: 17200

Problem: For 5-51H (antibody, V domains shown, Variable regions fused to human constant regions) VH: EVQLLESGGGLVQPGGSLRLSCAASGFTFSSYAMSWVRQAPGKGLEWVSGITGSGGSTYYADSVKGRFTISRDNSKNTLYLQMNSLRAEDTAVYYCAKDPCFSYIMSWFDPWGQGTLVTVSS VL: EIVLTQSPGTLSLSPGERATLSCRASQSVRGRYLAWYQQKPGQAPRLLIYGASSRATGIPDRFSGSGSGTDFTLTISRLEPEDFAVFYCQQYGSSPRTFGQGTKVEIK , write its kon.
Result: 29200

Problem: For 5-58H (antibody, V domains shown, Variable regions fused to human constant regions) VH: EVQLLESGGGLVQPGGSLRLSCAASGFTFSSYAMSWVRQAPGKGLEWVSGITGSGGSTYYADSVKGRFTISRDNSKNTLYLQMNSLRAEDTAVYYCVQDPGFTYIMSWFDPWGQGTLVTVSS VL: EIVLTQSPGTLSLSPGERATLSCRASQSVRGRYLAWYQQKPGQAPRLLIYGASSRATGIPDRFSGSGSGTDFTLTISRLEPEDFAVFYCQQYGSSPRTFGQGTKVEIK , write its kon.
Result: 12200

Problem: For 2-52L (antibody, V domains shown, Variable regions fused to human constant regions) VH: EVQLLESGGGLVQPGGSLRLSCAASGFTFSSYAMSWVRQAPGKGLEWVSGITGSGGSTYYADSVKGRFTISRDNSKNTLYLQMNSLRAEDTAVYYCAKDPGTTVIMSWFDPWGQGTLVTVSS VL: EIVLTQSPGTLSLSPGERATLSCRASQSVRGRYLAWYQQKPGQAPRLLIYQGSSRATGIPDRFSGSGSGTDFTLTISRLEPEDFAVFYCQQYGSSPRTFGQGTKVEIK , write its kon.
Result: 15700

Problem: For 2-79L (antibody, V domains shown, Variable regions fused to human constant regions) VH: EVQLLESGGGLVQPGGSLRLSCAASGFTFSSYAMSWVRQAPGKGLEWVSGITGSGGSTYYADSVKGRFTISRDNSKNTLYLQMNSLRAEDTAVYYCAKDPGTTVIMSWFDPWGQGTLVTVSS VL: EIVLTQSPGTLSLSPGERATLSCRASQSVRGRYLAWYQQKPGQAPRLLIYGSSSRATGIPDRFSGSGSGTDFTLTISRLEPEDFAVFYCQQYGSSPRTFGQGTKVEIK , write its kon.
Result: 14200

Problem: For 4-64L (antibody, V domains shown, Variable regions fused to human constant regions) VH: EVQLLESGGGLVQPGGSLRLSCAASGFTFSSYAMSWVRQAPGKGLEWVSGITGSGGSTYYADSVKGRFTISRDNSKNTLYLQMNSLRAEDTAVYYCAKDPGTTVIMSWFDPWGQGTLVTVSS VL: EIVLTQSPGTLSLSPGERATLSCRASQSVRGRYLAWYQQKPGQAPRLLIYGASSRATGIPDRFSGSGSGTDFTLTISRLEPEDFAVFYCQQYGSSPRIFGQGTKVEIK , write its kon.
Result: 14800
